Assay: MAD study, plasma pharmacokinetics
Assay type: in vivo, human
Settings: human, plasma, oral, 0.6 mg/day, MAD Day 1, 0.6 mg/day; read-out: tmax, median (range)
Attribute measured: Tmax (h)
Quick note: give the figure in h, leave out the unit.

So, "COc1ccc(CO[C@H]2CC[C@@]3(C)C(=CC[C@H]4[C@@H]5CC[C@H](C(C)=O)[C@@]5(C)CC[C@@H]43)C2)cc1" ? Its Tmax was 3

====

Test: Plasma and brain pharmacokinetics of oral AEF0117 in mice
Type: in vivo
Conditions: both sexes, CD-1 Swiss, mouse, plasma; mice po 0.3 mg/kg single
Attribute measured: Cmax (ng/mL)
Quick note: give the figure in ng/mL, leave out the unit.

So, COc1ccc(CO[C@H]2CC[C@@]3(C)C(=CC[C@H]4[C@@H]5CC[C@H](C(C)=O)[C@@]5(C)CC[C@@H]43)C2)cc1 [AEF0117, 3β-(4-methoxybenzyloxy)pregn-5-en-20-one] ? Its Cmax was 35.5

====

Experiment: MAD study, plasma pharmacokinetics
Type: in vivo, human
Details: human, plasma, oral, 2 mg/day, MAD Day 1, 2 mg/day; read-out: Cmax, mean (±SD)
Attribute measured: Cmax (ng/mL)
Quick note: give the figure in ng/mL, leave out the unit.

So, COc1ccc(CO[C@H]2CC[C@@]3(C)C(=CC[C@H]4[C@@H]5CC[C@H](C(C)=O)[C@@]5(C)CC[C@@H]43)C2)cc1 [AEF0117, 3β-(4-methoxybenzyloxy)pregn-5-en-20-one] ? Its Cmax was 11.6

====

Experiment: Plasma and brain pharmacokinetics/toxicokinetics in rats
Type: in vivo
Conditions: Sprague Dawley, rat, plasma, po, rats per os; read-out: half-life
Experimental: Blood samples were obtained from catheterized animals housed in Culex cages with an automated blood sampler—a robotic system designed to facilitate the sampling of whole blood from awake and freely moving rodents. […] For all studies in rats and the 91-d toxicity study in dogs, the timepoints on days 1, 28 and 91 were: before dose and 1, 3, 5, 8 and 24 h after dose. […] In both species, only mean pre-dose plasma concentrations were calculated on day 14 for the 28-d study and on day 28 for the 91-d study. […]
Attribute measured: half-life

So, "COc1ccc(CO[C@H]2CC[C@@]3(C)C(=CC[C@H]4[C@@H]5CC[C@H](C(C)=O)[C@@]5(C)CC[C@@H]43)C2)cc1" ? Its half-life was 438 to 948 min

====

Assay: Plasma and brain pharmacokinetics of oral AEF0117 in mice
Format: in vivo
Conditions: both sexes, CD-1 Swiss, mouse, plasma; mice po 10 mg/kg single
Attribute measured: Cmax (ng/mL)
Quick note: give the figure in ng/mL, leave out the unit.

So, "COc1ccc(CO[C@H]2CC[C@@]3(C)C(=CC[C@H]4[C@@H]5CC[C@H](C(C)=O)[C@@]5(C)CC[C@@H]43)C2)cc1" ? Its Cmax was 1790

====

Test: MAD study, plasma pharmacokinetics
Type: in vivo, human
Settings: human, plasma, oral, 0.6 mg/day, MAD Day 7, 0.6 mg/day; read-out: tmax, median (range)
Attribute measured: Tmax (h)
Quick note: give the figure in h, leave out the unit.

So, "COc1ccc(CO[C@H]2CC[C@@]3(C)C(=CC[C@H]4[C@@H]5CC[C@H](C(C)=O)[C@@]5(C)CC[C@@H]43)C2)cc1" ? Its Tmax was 3

====

Test: Plasma pharmacokinetics/toxicokinetics in dogs (oral and i.v.)
Type: in vivo
Details: both sexes, Beagle, dog, dogs po 20 mg/kg single, 91-day tox study
Attribute measured: Tmax
State the value, then name its unit.

So, "COc1ccc(CO[C@H]2CC[C@@]3(C)C(=CC[C@H]4[C@@H]5CC[C@H](C(C)=O)[C@@]5(C)CC[C@@H]43)C2)cc1" ? Its Tmax was 4 h

====

Experiment: Phase 2a study, plasma pharmacokinetics
Type: in vivo, human
Conditions: human, plasma; 1 mg, in the range predicted from animal data
Attribute measured: Cmax

So, COc1ccc(CO[C@H]2CC[C@@]3(C)C(=CC[C@H]4[C@@H]5CC[C@H](C(C)=O)[C@@]5(C)CC[C@@H]43)C2)cc1 [AEF0117, 3β-(4-methoxybenzyloxy)pregn-5-en-20-one] ? Its Cmax was ≥ 1.5 ng/mL

====

Experiment: Plasma pharmacokinetics/toxicokinetics in dogs (oral and i.v.)
Assay type: in vivo
Conditions: both sexes, Beagle, dog, po, 0.7 mg/kg, dogs po 0.7 mg/kg, manual linear regression of last three points, read-out: t½ (converted)
Attribute measured: half-life (h)
Quick note: give the figure in h, leave out the unit.

So, "COc1ccc(CO[C@H]2CC[C@@]3(C)C(=CC[C@H]4[C@@H]5CC[C@H](C(C)=O)[C@@]5(C)CC[C@@H]43)C2)cc1" ? Its half-life was 28

====

Assay: Plasma pharmacokinetics/toxicokinetics in dogs (oral and i.v.)
Type: in vivo
Conditions: both sexes, Beagle, dog, dogs po 65 mg/kg single, 91-day tox study
Attribute measured: Tmax (h)
Quick note: give the figure in h, leave out the unit.

So, "COc1ccc(CO[C@H]2CC[C@@]3(C)C(=CC[C@H]4[C@@H]5CC[C@H](C(C)=O)[C@@]5(C)CC[C@@H]43)C2)cc1" ? Its Tmax was 4

====

Experiment: Plasma pharmacokinetics/toxicokinetics in dogs (oral and i.v.)
Assay type: in vivo
Details: both sexes, Beagle, dog, iv, 0.7 mg/kg, dogs iv, read-out: half-life
Attribute measured: half-life

So, "COc1ccc(CO[C@H]2CC[C@@]3(C)C(=CC[C@H]4[C@@H]5CC[C@H](C(C)=O)[C@@]5(C)CC[C@@H]43)C2)cc1" ? Its half-life was 33.5 to 38.2 h

====

Experiment: SAD study, plasma pharmacokinetics
Assay type: in vivo
Details: both sexes, human, oral, SAD, 0.6 mg, evaluated 0-144 h, underestimated, read-out: t½, min-max
Attribute measured: half-life

So, "COc1ccc(CO[C@H]2CC[C@@]3(C)C(=CC[C@H]4[C@@H]5CC[C@H](C(C)=O)[C@@]5(C)CC[C@@H]43)C2)cc1" ? Its half-life was 75.9 to 229 h

====

Test: Plasma and brain pharmacokinetics of oral AEF0117 in mice
Format: in vivo
Conditions: both sexes, CD-1 Swiss, mouse, plasma; mice po 10 mg/kg single; read-out: t½ (converted)
Attribute measured: half-life (h)
Quick note: give the figure in h, leave out the unit.

So, "COc1ccc(CO[C@H]2CC[C@@]3(C)C(=CC[C@H]4[C@@H]5CC[C@H](C(C)=O)[C@@]5(C)CC[C@@H]43)C2)cc1" ? Its half-life was 18.2

====

Assay: Plasma and brain pharmacokinetics/toxicokinetics in rats
Type: in vivo
Conditions: both sexes, Sprague Dawley SPF, rat, plasma, po, 20 mg/kg, rats po 20 mg/kg single, 91-day tox study
Attribute measured: Cmax (ng/mL)
Quick note: give the figure in ng/mL, leave out the unit.

So, "COc1ccc(CO[C@H]2CC[C@@]3(C)C(=CC[C@H]4[C@@H]5CC[C@H](C(C)=O)[C@@]5(C)CC[C@@H]43)C2)cc1" ? Its Cmax was 1060

====

Assay: Plasma and brain pharmacokinetics/toxicokinetics in rats
Type: in vivo
Conditions: both sexes, Sprague Dawley SPF, rat, plasma; rats po 65 mg/kg single, 91-day tox study
Procedure: Blood samples were obtained from catheterized animals housed in Culex cages with an automated blood sampler—a robotic system designed to facilitate the sampling of whole blood from awake and freely moving rodents. […] For all studies in rats and the 91-d toxicity study in dogs, the timepoints on days 1, 28 and 91 were: before dose and 1, 3, 5, 8 and 24 h after dose. […] In both species, only mean pre-dose plasma concentrations were calculated on day 14 for the 28-d study and on day 28 for the 91-d study. […]
Attribute measured: Tmax (h)
Quick note: give the figure in h, leave out the unit.

So, COc1ccc(CO[C@H]2CC[C@@]3(C)C(=CC[C@H]4[C@@H]5CC[C@H](C(C)=O)[C@@]5(C)CC[C@@H]43)C2)cc1 [AEF0117, 3β-(4-methoxybenzyloxy)pregn-5-en-20-one] ? Its Tmax was 3

====

Test: MAD study, plasma pharmacokinetics
Type: in vivo, human
Conditions: human, plasma, oral, 2 mg/day, MAD Day 7, 2 mg/day; read-out: Cmax, mean (±SD)
Attribute measured: Cmax (ng/mL)
Quick note: give the figure in ng/mL, leave out the unit.

So, "COc1ccc(CO[C@H]2CC[C@@]3(C)C(=CC[C@H]4[C@@H]5CC[C@H](C(C)=O)[C@@]5(C)CC[C@@H]43)C2)cc1" ? Its Cmax was 14.5

====

Test: MAD study, plasma pharmacokinetics
Assay type: in vivo, human
Conditions: human, plasma, oral, 6 mg/day, MAD Day 1, 6 mg/day; read-out: tmax, median (range)
Method: Samples were collected at the same timepoints on day 1 and day 7: before dose and 0.5, 1, 1.5, 2, 3, 4, 6, 8 and 12 h after dose. […] For both SAD and MAD studies, the PK parameters were calculated using standard non-compartmental methods for those with sufficient plasma concentration data.
Attribute measured: Tmax (h)
Quick note: give the figure in h, leave out the unit.

So, COc1ccc(CO[C@H]2CC[C@@]3(C)C(=CC[C@H]4[C@@H]5CC[C@H](C(C)=O)[C@@]5(C)CC[C@@H]43)C2)cc1 [AEF0117, 3β-(4-methoxybenzyloxy)pregn-5-en-20-one] ? Its Tmax was 3.5
